- STUDY TARGET: Adenosine receptor A2b (Homo sapiens, UniProt P29275)
- Sequence (P29275 whole entry): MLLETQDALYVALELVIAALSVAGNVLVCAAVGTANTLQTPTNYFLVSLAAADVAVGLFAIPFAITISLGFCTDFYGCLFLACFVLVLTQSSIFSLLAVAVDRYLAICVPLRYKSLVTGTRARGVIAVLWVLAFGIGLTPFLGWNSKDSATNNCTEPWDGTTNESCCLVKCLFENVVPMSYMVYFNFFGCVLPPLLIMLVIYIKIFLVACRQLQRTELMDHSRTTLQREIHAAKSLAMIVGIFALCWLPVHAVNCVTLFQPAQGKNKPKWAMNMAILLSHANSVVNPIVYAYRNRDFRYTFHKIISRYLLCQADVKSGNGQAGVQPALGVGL
pKi: −log10 of the molar value.
Label scheme for pKi: lower than 7 is N, 7 and above is Y.

[
  {
    "SMILES INPUT": "CCCn1c(=O)c2[nH]c(-c3ccc(O)cc3)cc2n(CCC)c1=O",
    "STUDY TARGET": "Adenosine receptor A2b (Homo sapiens, UniProt P29275)",
    "CATEGORY LABEL": "Y"
  },
  {
    "SMILES INPUT": "CCCn1c(=O)c2[nH]c(-c3ccc(C(=O)O)cc3)c(O)c2n(CCC)c1=O",
    "STUDY TARGET": "Adenosine receptor A2b (Homo sapiens, UniProt P29275)",
    "CATEGORY LABEL": "N"
  },
  {
    "SMILES INPUT": "Cc1ccc(-c2[nH]c3c(=O)n(C)c(=O)n(C)c3c2O)cc1",
    "STUDY TARGET": "Adenosine receptor A2b (Homo sapiens, UniProt P29275)",
    "CATEGORY LABEL": "N"
  },
  {
    "SMILES INPUT": "CCCn1c(=O)c2[nH]c(-c3ccc(S(C)(=O)=O)cc3)c(O)c2n(CCC)c1=O",
    "STUDY TARGET": "Adenosine receptor A2b (Homo sapiens, UniProt P29275)",
    "CATEGORY LABEL": "Y"
  }
]

* * *

- Tested on: HeLa
- EXPERIMENT NOTES: Selectivity index, ratio of Ki for human cloned adenosine A2A receptor expressed in human HeLa cells to Ki for human cloned adenosine A2B receptor expressed in HEK293 cells
- Assay type: cell-based
List of Ratio Ki values.
MEASUREMENT NAME: Ratio Ki

[
  {
    "SMILES INPUT": "CCCn1c(=O)c2[nH]c(-c3ccc(OCC(=O)N4CCN(Cc5ccccc5)CC4)cc3)cc2n(CCC)c1=O",
    "NUMBER": 42
  },
  {
    "SMILES INPUT": "Cc1ccc(-c2cc3c([nH]2)c(=O)n(C)c(=O)n3C)cc1",
    "NUMBER": 0.28
  },
  {
    "SMILES INPUT": "CCCn1c(=O)c2[nH]c(-c3ccc(N)cc3)cc2n(CCC)c1=O",
    "NUMBER": 18.2
  },
  {
    "SMILES INPUT": "CCCn1c(=O)c2[nH]c(-c3ccc(O)cc3)cc2n(CCC)c1=O",
    "NUMBER": 1.1
  },
  {
    "SMILES INPUT": "Cn1c(=O)c2[nH]c(-c3ccc(S(C)(=O)=O)cc3)c(O)c2n(C)c1=O",
    "NUMBER": 10.2
  },
  {
    "SMILES INPUT": "CCCn1c(=O)c2[nH]c(-c3ccc(S(C)(=O)=O)cc3)c(O)c2n(CCC)c1=O",
    "NUMBER": 4.3
  },
  {
    "SMILES INPUT": "CCCn1c(=O)c2[nH]c(-c3ccc(C)cc3)cc2n(CCC)c1=O",
    "NUMBER": 3.2
  },
  {
    "SMILES INPUT": "CCCn1c(=O)c2[nH]c(-c3ccc(C)cc3)c(O)c2n(CCC)c1=O",
    "NUMBER": 1
  },
  {
    "SMILES INPUT": "CCCn1c(=O)c2[nH]c(-c3ccco3)c(O)c2n(CCC)c1=O",
    "NUMBER": 4.5
  },
  {
    "SMILES INPUT": "CCCn1c(=O)c2[nH]c(-c3ccc(C(=O)O)cc3)c(O)c2n(CCC)c1=O",
    "NUMBER": 2.8
  }
]
